Method: TD Phase (Groups 1 and 3): plasma and ocular tissue concentrations and pharmacokinetics of Compound 18 and its metabolite Compound 4 after once daily ocular instillation of Compound 18 nanosuspension for 7 days
Format: in vivo, New Zealand white rabbits
Assay Context: male, New Zealand white, rabbit, topical or ocular, 0.8 mg/kg/day; lens, Day 7, from mean concentrations

| Substance Smiles | Readout Unit | Tmax |
| --- | --- | --- |
| CCCc1nn(C)c2c(=O)[nH]c(-c3cc(S(=O)(=O)N4CC(CCCO)C4)ccc3OCC)nc12 | min | 60 |
| CCCc1nn(C)c2c(=O)[nH]c(-c3cc(S(=O)(=O)N4CC(CCCO[N+](=O)[O-])C4)ccc3OCC)nc12 | min | 30 |

---

Method: TD Phase (Groups 1 and 3): plasma and ocular tissue concentrations and pharmacokinetics of Compound 18 and its metabolite Compound 4 after once daily ocular instillation of Compound 18 nanosuspension for 7 days
Assay type: in vivo, New Zealand white rabbits
Assay Context: male, New Zealand white, rabbit, sclera/choroid homogenate, other: ocular instillation (eye drop), 0.798 mg/kg/day, TD Phase, Group 1, 1 h, individual animals, homogenate dilution factor 8; read-out: Compound 4 Sclera/Choroid Homogenate Conc.

| Molecule | concentration at 1 h [ng/mL] |
| --- | --- |
| CCCc1nn(C)c2c(=O)[nH]c(-c3cc(S(=O)(=O)N4CC(CCCO)C4)ccc3OCC)nc12 [Compound 4] | 17 |

---

# maps each entry to its pIC50
Experimental Target: human PDE-5A1 (Homo sapiens)
Method: Human PDE-5A1 inhibition assay (fluorescence polarization, FAM-cGMP)
Format: biochemical
pIC50: −log10 of the molar value.

| Molecule | Experimental Target | pIC50 |
| --- | --- | --- |
| CCCc1nn(C)c2c(=O)[nH]c(-c3cc(S(=O)(=O)N4CC(N(CCCO[N+](=O)[O-])CCCO[N+](=O)[O-])C4)ccc3OCC)nc12 | human PDE-5A1 (Homo sapiens) | 7.00 to 8.00 |
| CCCc1nn(C)c2c(=O)[nH]c(-c3cc(S(=O)(=O)N4CC(CCCOC(=O)CCC(CO[N+](=O)[O-])O[N+](=O)[O-])C4)ccc3OCC)nc12 (centres unmarked) | human PDE-5A1 (Homo sapiens) | > 8.00 |
| CCCc1nn(C)c2c(=O)[nH]c(-c3cc(S(=O)(=O)N4CC(CCCOC(=O)CCCCC(CO[N+](=O)[O-])O[N+](=O)[O-])C4)ccc3OCC)nc12 (centres unmarked) | human PDE-5A1 (Homo sapiens) | 7.00 to 8.00 |
| CCCc1nn(C)c2c(=O)[nH]c(-c3cc(S(=O)(=O)N4CC(N(C)CCOC(=O)CCCCC(CO[N+](=O)[O-])O[N+](=O)[O-])C4)ccc3OCC)nc12 (centres unmarked) | human PDE-5A1 (Homo sapiens) | > 8.00 |
| CCCc1nn(C)c2c(=O)[nH]c(-c3cc(S(=O)(=O)N4CC(NCCOC(=O)CCCCC(CO[N+](=O)[O-])O[N+](=O)[O-])C4)ccc3OCC)nc12 (centres unmarked) | human PDE-5A1 (Homo sapiens) | > 8.00 |

---

Method: PK Phase (Group 2): plasma concentrations and pharmacokinetics of Compound 18 and its metabolite Compound 4 after once daily ocular instillation of Compound 18 nanosuspension for 7 days
Assay type: in vivo, New Zealand white rabbits
Assay Context: male, New Zealand white, rabbit, plasma, other: ocular instillation (eye drop), 0.821 mg/kg/day, 8 h; Mean of 4 animals, BQL set to 0; read-out: Day 1 Compound 18 Plasma Concentration
Measured Property: concentration at 8 h

| Compound | Observed |
| --- | --- |
| CCCc1nn(C)c2c(=O)[nH]c(-c3cc(S(=O)(=O)N4CC(CCCO[N+](=O)[O-])C4)ccc3OCC)nc12 [Compound 18] | 0 ng/mL |

---

Method: TD Phase (Groups 1 and 3): plasma and ocular tissue concentrations and pharmacokinetics of Compound 18 and its metabolite Compound 4 after once daily ocular instillation of Compound 18 nanosuspension for 7 days
Type: in vivo, New Zealand white rabbits
Assay Context: male, New Zealand white, rabbit, vitreous humor, other: ocular instillation (eye drop), 0.8 mg/kg/day, TD Phase, Group 3, 0.5 h, Mean, BQL set to 0; read-out: Compound 18 Vitreous Humor Conc.

| Substance Smiles | concentration at 0.5 h |
| --- | --- |
| CCCc1nn(C)c2c(=O)[nH]c(-c3cc(S(=O)(=O)N4CC(CCCO[N+](=O)[O-])C4)ccc3OCC)nc12 | 0.0257 ng/mL |

---

Method: TD Phase (Groups 1 and 3): plasma and ocular tissue concentrations and pharmacokinetics of Compound 18 and its metabolite Compound 4 after once daily ocular instillation of Compound 18 nanosuspension for 7 days
Type: in vivo, New Zealand white rabbits
Assay Context: male, New Zealand white, rabbit, sclera/choroid homogenate, other: ocular instillation (eye drop), 0.798 mg/kg/day, TD Phase, Group 1, 1 h, individual animals, homogenate dilution factor 8; read-out: Compound 18 Sclera/Choroid Homogenate Conc.
Measured Property: concentration at 1 h (ng/mL)

| Substance Smiles | Observed |
| --- | --- |
| CCCc1nn(C)c2c(=O)[nH]c(-c3cc(S(=O)(=O)N4CC(CCCO[N+](=O)[O-])C4)ccc3OCC)nc12 | 3.89 |

---

Method: TD Phase (Groups 1 and 3): plasma and ocular tissue concentrations and pharmacokinetics of Compound 18 and its metabolite Compound 4 after once daily ocular instillation of Compound 18 nanosuspension for 7 days
Type: in vivo, New Zealand white rabbits
Assay Context: male, New Zealand white, rabbit, topical or ocular; Retina; Day 7; Compound 18 0.8 mg/kg ocular instillation once daily; Groups 1 and 3

| Substance Smiles | Tmax |
| --- | --- |
| CCCc1nn(C)c2c(=O)[nH]c(-c3cc(S(=O)(=O)N4CC(CCCO)C4)ccc3OCC)nc12 | 2 h |

---

Method: PK Phase (Group 2): plasma concentrations and pharmacokinetics of Compound 18 and its metabolite Compound 4 after once daily ocular instillation of Compound 18 nanosuspension for 7 days
Format: in vivo, New Zealand white rabbits
Assay Context: male, New Zealand white, rabbit, plasma, other: ocular instillation (eye drop), 0.821 mg/kg/day, 24 h; animal 207667; read-out: Day 7 Compound 18 Plasma Concentration
Measured Property: concentration at 24 h (ng/mL)

| Substance Smiles | Observed |
| --- | --- |
| CCCc1nn(C)c2c(=O)[nH]c(-c3cc(S(=O)(=O)N4CC(CCCO[N+](=O)[O-])C4)ccc3OCC)nc12 | 0.0614 |

---

Method: TD Phase (Groups 1 and 3): plasma and ocular tissue concentrations and pharmacokinetics of Compound 18 and its metabolite Compound 4 after once daily ocular instillation of Compound 18 nanosuspension for 7 days
Format: in vivo, New Zealand white rabbits
Assay Context: male, New Zealand white, rabbit, aqueous humor, other: ocular instillation (eye drop), 0.8 mg/kg/day, TD Phase, Group 1, 1 h, individual animals; read-out: Compound 18 Aqueous Humor Conc.

| Substance Smiles | concentration at 1 h |
| --- | --- |
| CCCc1nn(C)c2c(=O)[nH]c(-c3cc(S(=O)(=O)N4CC(CCCO[N+](=O)[O-])C4)ccc3OCC)nc12 | 0.189 ng/mL |

---

Method: TD Phase (Groups 1 and 3): plasma and ocular tissue concentrations and pharmacokinetics of Compound 18 and its metabolite Compound 4 after once daily ocular instillation of Compound 18 nanosuspension for 7 days
Type: in vivo, New Zealand white rabbits
Assay Context: male, New Zealand white, rabbit, topical or ocular, 0.8 mg/kg/day; lens, Day 7, from mean concentrations
Measured Property: half-life (h)

| Substance Smiles | Measured Property | Readout Unit | Observed |
| --- | --- | --- | --- |
| CCCc1nn(C)c2c(=O)[nH]c(-c3cc(S(=O)(=O)N4CC(CCCO[N+](=O)[O-])C4)ccc3OCC)nc12 | half-life | h | 0.865 |
| CCCc1nn(C)c2c(=O)[nH]c(-c3cc(S(=O)(=O)N4CC(CCCO)C4)ccc3OCC)nc12 | half-life | h | 2.25 |

---

# maps each entry to its Cmax
Method: TD Phase (Groups 1 and 3): plasma and ocular tissue concentrations and pharmacokinetics of Compound 18 and its metabolite Compound 4 after once daily ocular instillation of Compound 18 nanosuspension for 7 days
Format: in vivo, New Zealand white rabbits
Assay Context: male, New Zealand white, rabbit, topical or ocular, 0.8 mg/kg/day; iris/ciliary body, Day 7, from mean concentrations
Measured Property: Cmax (ng/g)

| Compound | Measured Property | Observed |
| --- | --- | --- |
| CCCc1nn(C)c2c(=O)[nH]c(-c3cc(S(=O)(=O)N4CC(CCCO)C4)ccc3OCC)nc12 [Compound 4] | Cmax | 980 |
| CCCc1nn(C)c2c(=O)[nH]c(-c3cc(S(=O)(=O)N4CC(CCCO[N+](=O)[O-])C4)ccc3OCC)nc12 [Compound 18] | Cmax | 107 |

---

Method: TD Phase (Groups 1 and 3): plasma and ocular tissue concentrations and pharmacokinetics of Compound 18 and its metabolite Compound 4 after once daily ocular instillation of Compound 18 nanosuspension for 7 days
Format: in vivo, New Zealand white rabbits
Assay Context: male, New Zealand white, rabbit, topical or ocular; Vitreous Humor; Day 7; Compound 18 0.8 mg/kg ocular instillation once daily; Groups 1 and 3
Measured Property: half-life (h)

| Substance Smiles | Observed |
| --- | --- |
| CCCc1nn(C)c2c(=O)[nH]c(-c3cc(S(=O)(=O)N4CC(CCCO)C4)ccc3OCC)nc12 | 1.72 |
